Tested on: Human immunodeficiency virus 1
Assay: Antiviral activity against wild type HIV-1
Format: functional, organism-based
Would you mind telling me the reported pEC50 of each entry?
One number for each entry, as −log10 of the molar value.

// worked examples, pEC50 included
N#Cc1ccc(Nc2nc(N)cc(Oc3c(F)cc(-c4ccc(C#N)cc4)cc3F)n2)cc1	8.74
Cc1cc(C#N)cc(C)c1Oc1ccnc(S(=O)(=O)CC(=O)Nc2ccc(C#N)cc2)n1	8.70
N#Cc1ccc(Nc2nccc(/C(=N/O)c3ccc(-c4ccc(F)cc4)cc3F)n2)cc1	7.92

Quick request: pEC50 for each listed item, please.
1. Cc1cc(C(C#N)c2ccccc2F)nc(Nc2ccc(C#N)cc2)n1 (centres undefined)
2. Cc1cc(C#Cc2cccnc2)cc(C)c1Oc1ccnc(Nc2ccc(C#N)cc2)n1
3. N#Cc1ccc(Nc2ncc(CO)c(Nc3c(F)cc(-c4ccc(C#N)cc4)cc3F)n2)cc1

Result:
1. 8.74
2. 8.52
3. 9.05

Quick request: pEC50 for each listed item, please.
1. Cc1cc(-c2ccc(C#N)cc2)cc(C)c1Oc1ccnc(S(=O)(=O)CC(=O)Nc2ccc(C#N)cc2)n1
2. COC(=O)n1ncc(-c2cc(C)c(Oc3ccnc(Nc4ccc(C#N)cc4)n3)c(C)c2)n1
3. COc1cc2cc(C#N)ccc2c(OC)c1Oc1ccnc(Nc2ccc(C#N)cc2)n1

Result:
1: 8.22; 2: 7.89; 3: 8.30
